- tested-on: T1, UHRF1^D334A&Δ627–674 (human, UniProt Q96T88 1-793, D334A | Δ627–674)
- T1 construct: human UHRF1 (1–793)
- T1 sequence (looked up): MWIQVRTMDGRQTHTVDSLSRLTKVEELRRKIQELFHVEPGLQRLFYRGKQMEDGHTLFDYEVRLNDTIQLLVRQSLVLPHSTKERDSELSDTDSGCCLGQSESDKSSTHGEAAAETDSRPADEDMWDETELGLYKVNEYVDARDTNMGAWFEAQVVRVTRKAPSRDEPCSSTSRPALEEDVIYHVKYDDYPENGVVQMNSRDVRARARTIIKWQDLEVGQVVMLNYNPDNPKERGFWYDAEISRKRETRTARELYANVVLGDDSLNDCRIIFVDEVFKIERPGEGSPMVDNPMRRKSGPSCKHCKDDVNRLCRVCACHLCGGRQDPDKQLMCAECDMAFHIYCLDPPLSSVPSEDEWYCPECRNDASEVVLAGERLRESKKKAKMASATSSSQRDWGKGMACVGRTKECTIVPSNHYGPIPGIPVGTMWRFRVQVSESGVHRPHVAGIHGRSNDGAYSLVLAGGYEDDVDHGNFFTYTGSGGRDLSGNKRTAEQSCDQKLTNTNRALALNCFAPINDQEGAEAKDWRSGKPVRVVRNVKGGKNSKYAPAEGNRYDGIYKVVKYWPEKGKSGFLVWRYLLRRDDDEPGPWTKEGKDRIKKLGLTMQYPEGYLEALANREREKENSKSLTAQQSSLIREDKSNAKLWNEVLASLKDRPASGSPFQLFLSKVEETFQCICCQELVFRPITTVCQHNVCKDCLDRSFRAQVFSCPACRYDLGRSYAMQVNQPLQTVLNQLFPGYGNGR
- method: ITC; 0.05 mM protein in the cell, 0.5 mM protein or peptide in the syringe, iTC200, 18 °C, 10 mM HEPES pH 8.0, 100 mM NaCl
- condition-set: both partners purified
measurement-type: pKd
# pKd = -log10(concentration in molar units)

query: Supply measured pKd of ARTKQTARKSTGGKAPR (peptide, UniProt P68431 2-18, looked up, trimethyl-lysine at K9, histone H3, residues 1–17) [H3K9me3 peptide (1–17)] in your reply.
result: 5.06

Each recorded value in this set is attributed to paper PMC4822050.
